Source: patent US20240383875A1

This document collects log10 IC50 values reported for SIK3 (Homo sapiens, UniProt Q9Y2K2).
Scale: decimal log of IC50, IC50 in nM.

Batch request: log10 IC50 per item, same order as input.
1. Cc1ccc(Nc2ccc3c(c2)ncn3-c2ccc([C@H](C)O)c(-n3nc(C#N)cc3C)n2)nn1 [Example 109]
2. Cc1ccc(Nc2cc3ncn(-c4ccc([C@H](C)O)c(-n5nc(C(F)F)cc5C)n4)c3cc2F)nn1 [Example 301]
3. COc1cc2ncn(-c3ccc([C@@H](C)O)c(-c4ccc(F)cc4OC)n3)c2cc1OC [Example 22]
4. Cc1ccc(Nc2ccc3c(c2)ncn3-c2ccc(C(C)O)c(-c3cc(C(F)(F)F)n[nH]c3=O)n2)nn1 (stereo not shown) [Example 223, formic acid]

Response line:
1.27
0.30
3.65
2.53

Batch request: log10 IC50 per item, same order as input.
1. COCCOc1cc2c(cc1Nc1ccc(C)nn1)ncn2-c1ccc(C(C)O)c(-n2nc(C#N)cc2C)n1 (stereo not shown) [Example 187]
2. Cc1cc(C(F)F)nn1-c1nc(-n2cnc3cc(Nc4ccc(Cl)nn4)c(F)cc32)ccc1C(C)O (stereo not shown) [Example 372]
3. Cc1ccc(Nc2ccc3c(c2)ncn3-c2ccc(C(C)O)c(N3CC(C)(C#N)C3)n2)nn1 (stereo not shown) [Example 183]

Response line:
1: 0.75; 2: 0.56; 3: 1.24
